Biological target: T1, ARHGEF11, O15085
T1 sequence (O15085 42-136, limits assumed, looked up): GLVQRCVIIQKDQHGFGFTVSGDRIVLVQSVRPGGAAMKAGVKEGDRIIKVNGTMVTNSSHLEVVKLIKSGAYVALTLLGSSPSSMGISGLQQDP
Experiment: holdup assay
Set-up: key: below the threshold = too weak to quantify, mostly under pKd 3.1 to 4
Conditions: plain residues with an end cap or a label only (N-terminal biotin on a linker: ttds)
# binarize pKd: threshold 4 inclusive, high side YES, low side NO

# binder, group_label
records = [
    ("QSARYRDTEL [TJP2, Q9UDY2]", "NO"),
    ("IDNDTESTAL [ARHGAP17, Q68EM7]", "YES"),
    ("IYVPEAQTRL [DLGAP4, Q9Y2H0]", "NO"),
    ("GQDSREETQL [KCNT2, Q6UVM3]", "YES"),
]
